Values were extracted from patent US9732075B2.

Collected pIC50 values appear next to each entry.
Biological target: human orexin-2 receptor (Homo sapiens (Human))
Test: In vitro assay: intracellular calcium measurements (FLIPR), antagonistic activity
Conditions: CHO cells expressing human orexin-2 receptor, orexin-A agonist, geometric mean, read-out: IC50 Ox2
In textbook form, pIC50 equals minus log to base ten of the concentration in mol/L.

Example results:
# compound, measuredOn, pIC50
records = [
    ("COc1cccc2[nH]c([C@@H]3[C@@H](C)CCN3C(=O)c3cc(C)ccc3-n3nccn3)nc12 [Ex. 4.31]", "human orexin-2 receptor (Homo sapiens (Human))", 6.11),
    ("COc1cc(C(=O)N2CCC[C@@]2(C)c2nc3cc(C(F)(F)F)ccc3[nH]2)c(-n2nccn2)cc1OC [Ex. 5.174]", "human orexin-2 receptor (Homo sapiens (Human))", 6.88),
]

API: the following record is the query input.
Fill blank: measured pIC50 of the compound Cc1ccc(C(=O)N2CC[C@H](C)[C@H]2c2nc3cc(Cl)c(C)cc3[nH]2)c(-c2cccnc2)c1 [Ex. 4.110] is ____.
5.82

---

Molecular target: human orexin-2 receptor (Homo sapiens (Human))
Assay: In vitro assay: intracellular calcium measurements (FLIPR), antagonistic activity
Conditions: CHO cells expressing human orexin-2 receptor, orexin-A agonist, geometric mean, read-out: IC50 Ox2
measurementType: IC50 (nM)
Give just the numeric value; nM need not be written.

Example results:
# smilesText, IC50 [nM]
measured = [
    ("Cc1cc2nc([C@@H]3[C@@H](C)CCN3C(=O)c3cc(Cl)ccc3-n3nccn3)[nH]c2cc1C", 79),
    ("C=C1C[C@@H](c2nc3ccc(OC)cc3[nH]2)N(C(=O)c2c(-n3nccn3)ccc(C)c2F)C1", 9),
]

Fill blank: measured IC50 of the compound COc1cc2nc([C@]3(C)CCCN3C(=O)c3cc(Cl)ccc3-n3nccn3)[nH]c2cc1OC is ____.
19

Please give the result for CSc1ccc2nc([C@@H]3CCCN3C(=O)c3ccc(C)cc3-n3nccn3)[nH]c2c1 too.
3

Please give the result for C=C1C[C@@H](c2nc3cc(C)c(C)cc3[nH]2)N(C(=O)c2c(-n3nccn3)ccc(OC)c2F)C1 too.
11

Please give the result for Cc1ccc(-c2nc(C)sc2C(=O)N2CC[C@H](C)[C@H]2c2nc3c(C)c(Cl)ccc3[nH]2)cc1 too.
207

---

Collected IC50 values appear next to each entry.
Biological target: human orexin-2 receptor (Homo sapiens (Human), UniProt O43614)
Sequence (O43614 whole entry): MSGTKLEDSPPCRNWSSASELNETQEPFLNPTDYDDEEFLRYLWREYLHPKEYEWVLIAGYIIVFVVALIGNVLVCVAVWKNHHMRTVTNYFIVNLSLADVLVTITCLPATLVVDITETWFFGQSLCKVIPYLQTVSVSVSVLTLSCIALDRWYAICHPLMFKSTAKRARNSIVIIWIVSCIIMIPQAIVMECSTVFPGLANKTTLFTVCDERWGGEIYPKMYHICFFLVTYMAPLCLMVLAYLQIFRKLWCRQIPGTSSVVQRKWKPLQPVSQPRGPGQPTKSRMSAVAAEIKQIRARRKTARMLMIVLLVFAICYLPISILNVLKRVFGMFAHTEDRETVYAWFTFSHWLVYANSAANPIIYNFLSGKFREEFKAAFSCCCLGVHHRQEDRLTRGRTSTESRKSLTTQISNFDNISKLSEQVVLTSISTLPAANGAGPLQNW
Assay: In vitro assay: intracellular calcium measurements (FLIPR), antagonistic activity
Details: CHO cells expressing human orexin-2 receptor, orexin-A agonist, geometric mean, read-out: IC50 Ox2
Give just the numeric value; nM need not be written.

Example results:
# smilesText, measuredOn, number
measured = [
    ("Cc1ccc(-n2nccn2)c(C(=O)N2CCC[C@@]2(C)c2nc3c(C)c(Cl)ccc3[nH]2)c1", "human orexin-2 receptor (Homo sapiens (Human), UniProt O43614)", 5),
    ("COc1ccc2nc([C@@H]3CCCN3C(=O)c3ccc(C)cc3-n3nccn3)[nH]c2c1", "human orexin-2 receptor (Homo sapiens (Human), UniProt O43614)", 5),
    ("C=C1C[C@@H](c2nc3c(Br)cccc3[nH]2)N(C(=O)c2cc(C)ccc2-n2nccn2)C1", "human orexin-2 receptor (Homo sapiens (Human), UniProt O43614)", 33),
    ("Cc1ccc(-n2nccn2)c(C(=O)N2CCC[C@@]2(C)c2nc3c(C)c(Cl)ccc3[nH]2)n1", "human orexin-2 receptor (Homo sapiens (Human), UniProt O43614)", 15),
    ("Cc1nc(C(=O)N2CC[C@H](C)[C@H]2c2nc3cc(C#N)ccc3[nH]2)c(-c2cccc(Cl)c2)s1", "human orexin-2 receptor (Homo sapiens (Human), UniProt O43614)", 9930),
]

Fill blank: measured IC50 of the compound Cc1ccc(-n2nccn2)c(C(=O)N2CC[C@H](C)[C@H]2c2nc3c(Cl)cccc3[nH]2)c1 is ____.
2740

Please give the result for COc1ccc(-n2nccn2)c(C(=O)N2CCC[C@@]2(C)c2nc3c(C)cccc3[nH]2)c1 too.
33
